Cited source: PubChem BioAssay AID1159580

Quick list: normalized growth per entry.
Test: chemical genetic growth profiling, strain panel (AID 1159580);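 also: tested at 20 µM; growth read once vehicle control cultures reached saturation at 30 °C; 1 = growth at the plate median or of vehicle wells; lower values mean less growth of the strain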
Conditions: S. cerevisiae deletion strains, growth OD, locus YJL115W, strain asf1, hits give low values
Hit rate of the full screen: of about 5,500 compounds, about 2,000 (36%) were called active. About 18% were inconclusive and are not listed. Some of the results follow. Where a SMILES comes first, the peptide text is derived from it. Bridges are numbered along the chain shown (N, C = ends). Side-chain parts run from the residue outwards. [ ]: non-standard residue; d: D form. The star is where a group is joined. Octanoyl(6-Me) = CCC(C)CCCCC(=O)*; X1 = CCC(C)C(N)C1=NC(C(=O)*)CS1; Orn = NCCC[CH](N)C(=O)O; Dab = NCC[CH](N)C(=O)O
Output spec: single numeric token, no unit.

These recorded examples may help you get a feel for the data.
COc1c2ccoc2cc2oc(C)cc(=O)c12; 1.01
CC(=O)NO; 0.954
CCC1(CC)C(=O)C=CNC1=O; 0.973
CC1(C)C(=O)[C@@H]2C[C@@]3(O)C4=CC(=O)O[C@@H](c5ccoc5)[C@]4(C)CCC3[C@@](C)(C2=O)[C@H]1CC(=O)O (stereo not given in full); 1.02
CCC(C)C(N)C1=NC(C(=O)NC(CC(C)C)C(=O)NC(CCC(=O)O)C(=O)NC(C(=O)NCCCCC2NC(=O)C(CC(N)=O)NC(=O)C(CC(=O)O)NC(=O)C(Cc3cnc[nH]3)NC(=O)C(Cc3ccccc3)NC(=O)C(C(C)CC)NC(=O)C(CCCN)NC2=O)C(C)CC)CS1 (stereo not drawn) (cyclo(DNK([Ile-Glu-Leu-X1])[Orn]IFH); configuration not given here); 0.989
CN(C)C(=N)N=C(N)N; 1.01
CCC(C)CCCCC(=O)NC(CCN)C(=O)NC(C(=O)NC(CCN)C(=O)NC1CCNC(=O)C(C(C)O)NC(=O)C(CCN)NC(=O)C(CCN)NC(=O)C(CC(C)C)NC(=O)C(Cc2ccccc2)NC(=O)C(CCN)NC1=O)C(C)O (stereo not given) ({Octanoyl(6-Me)}-[Dab]T[Dab][Dab][Dab]FL[Dab][Dab]T; lactam 4-C; configuration not given here); 0.977
CO[C@@]1(NC(=O)Cc2cccs2)C(=O)N2C(C(=O)O)=C(COC(N)=O)CS[C@@H]21; 0.969

Dear colleague, I am looking for the recorded normalized growth of the following compound: COc1c2c(cc3c1OCO3)C13C=C[C@H](OC)CC1N(C2)CC3O (stereo not given in full)
0.957

Dear colleague, I am looking for the recorded normalized growth of the following compound: "O=c1c(O)c(-c2ccc(O)c(O)c2)oc2cc(O)ccc12"
0.998

Dear colleague, I am looking for the recorded normalized growth of the following compound: "CCOC([O-])=Nc1c[n+](N2CCOCC2)no1"
0.982

###

Assay: chemical genetic growth profiling, strain panel (AID 1159580);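 also: tested at 20 µM; growth read once vehicle control cultures reached saturation at 30 °C; 1 = growth at the plate median or of vehicle wells; lower values mean less growth of the strain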
Details: S. cerevisiae deletion strains, growth OD, locus YFR010W, strain ubp6, hits give low values
About 2,000 (36%) of roughly 5,500 compounds were called active. Another 18% or so got no clear call; they are omitted. The list shows a part of the results.
Quick list: normalized growth per entry.
Output spec: single numeric token, no unit.

COC1(C)CCC2OC2(C)CCC2C1CC2(C)C (stereo unspecified); 1.03

Dear colleague, I am looking for the recorded normalized growth of the following compound: "NCCc1cc(O)c(O)cc1O"
0.921

Dear colleague, I am looking for the recorded normalized growth of the following compound: "CO[C@@]1(NC(=O)Cc2cccs2)C(=O)N2C(C(=O)O)=C(COC(N)=O)CS[C@@H]21"
1.01
